- measurement description: P-glycoprotein substrates identified in KB-8-5-11 adenocarcinoma cell line, qHTS therapeutic library screen (AID 1346987); further: nearly all actives have a fitted effect of over 65% in size
- measurement conditions: KB-8-5-11 (P-gp overexpressing) viability, CellTiter-Glo, 72 h; series mostly up to 44.5 µM
Results filed as inconclusive are left out. Active and inactive are the calls of the source. The call rests on the fitted dose curve; in most records, active means well fitted inhibition curve with a large enough effect; inconclusive means small, poorly fitted or top-dose-only effect; inactive means flat fitted curve, though single readings scatter.
Outcomes: active, inactive

compound	assigned category
CCCCCCCCCC(CC)c1ccc(S(=O)(=O)O)cc1 (stereo unspecified)	inactive
Nc1ccc(Sc2ccc(N)cc2)cc1	inactive
Cc1cc(O)ccc1Cl	inactive
CCc1c(C(=O)C(N)=O)c2c(OCC(=O)O)cccc2n1Cc1ccccc1	inactive
N=c1c2c(-c3ccccc3)c(-c3ccccc3)n(Cc3ccccc3)c2ncn1C1CCC(O)CC1 (stereo unspecified)	active
CSCC[C@@H](NC(=O)[C@@H](Cc1ccccc1)NC(=O)CNC(=O)CNC(=O)[C@@H](N)Cc1ccc(O)cc1)C(=O)O	inactive
CC[N+]1(CCOC(=O)C(O)(c2ccccc2)c2ccccc2)CCCCC1	inactive
CC1=NN=C(c2ccc(N)cc2)c2cc3c(cc2C1)OCO3	inactive
CN(C)NC(=O)CCC(=O)O	inactive
O=c1[nH]c2ccccc2n1C1CCN(Cc2ccc(-c3[nH]c4cc5ncnc5cc4nc3-c3ccccc3)cc2)CC1	inactive
CC(C)(C)[C@]1(O)C[C@@H]2OC(=O)C[C@@]23C(=O)O[C@@H]2OC(=O)[C@H](O)C213 (stereo partly specified)	inactive
C[C@]12Cc3cn[nH]c3C[C@@H]1CC[C@@H]1[C@H]2CC[C@@]2(C)[C@H]1CC[C@]2(C)O	inactive
CS(=O)(=O)c1ccc(C(=O)C2C(=O)CCCC2=O)c([N+](=O)[O-])c1	inactive
OCCCBr	inactive
CC(=Cc1csc(C)n1)[C@@H]1C[C@H]2O[C@@H]2CCC[C@H](C)[C@@H](O)[C@@H](C)C(=O)C(C)(C)[C@@H](O)CC(=O)O1	active
COc1cc([C@@H]2c3cc4c(cc3[C@@H](O)C3COC(=O)C32)OCO4)cc(OC)c1O (stereo partly specified)	active
CO/C=C(/C(=O)OC)c1ccccc1Oc1cc(Oc2ccccc2C#N)ncn1	active
O=c1[nH]c2ccc(Cl)cc2c(N[C@@H]2CN3CCC2CC3)c1-c1nc2ccccc2[nH]1	active
O=S(=O)(F)Cc1ccccc1	inactive
c1ccc2c(CN3CCNCC3)cccc2c1	inactive
C[C@]12CCC(=O)C(O)=C1CC[C@@H]1[C@H]3CCC(=O)[C@@]3(C)CC[C@@H]12	inactive
Cc1ccccc1-n1c(Cn2cnc3c(N)ncnc32)nc2cccc(C)c2c1=O	active
C=C1C[C@H]2[C@H]3CCC(=O)[C@@]3(C)CC[C@@H]2[C@@]2(C)C=CC(=O)C=C12	inactive
COC(=O)[C@@H](N)CCCN=C(N)N[N+](=O)[O-]	inactive
NC1=NC(=O)N2CC12 (stereo unspecified)	inactive
CC(=Cc1csc(C)n1)[C@@H]1C[C@H]2O[C@]2(C)CCC[C@H](C)[C@@H](O)[C@@H](C)C(=O)C(C)(C)[C@@H](O)CC(=O)O1	active
CC(O)CN1CCN(CC(=O)[O-])CCN(CC(=O)[O-])CCN(CC(=O)[O-])CC1.[Gd+3] (stereo unspecified)	inactive
C[C@]12CC[C@@H]3[C@@H](CCC4=CC(=O)CC[C@@H]43)[C@@H]1CC[C@@H]2OC(=O)CCc1ccccc1	active
NC1CC1c1ccccc1 (stereo unspecified)	inactive
CC(=O)Nc1ccc(OC[C@](C)(O)C(=O)Nc2ccc([N+](=O)[O-])c(C(F)(F)F)c2)cc1	inactive
CCO/N=C(\CC)C1=C(O)CC(c2c(C)cc(C)cc2C)CC1=O (stereo unspecified)	inactive
COc1ccc2c(c1)[C@]13CCCCC1C(C2)N(C)CC3 (stereo partly specified)	inactive
CCCCC(CC)COC(=O)c1ccccc1C(=O)OCC(CC)CCCC (stereo unspecified)	inactive
C/C=C(/C)C(=O)O[C@H]1C(C)=C2[C@H]([C@@H]1OC(=O)CCCCCCC)[C@@](C)(OC(C)=O)C[C@H](OC(=O)CCC)[C@@]1(O)[C@H]2OC(=O)[C@@]1(C)O	active
CCCCCCCCc1ccc(O)cc1	inactive
Cc1ccccc1-n1c(Cn2ncc3c(N)ncnc32)nc2cccc(C)c2c1=O	inactive
CC(C)[C@]12O[C@H]1[C@@H]1O[C@]13[C@]1(O[C@H]1C[C@H]1C4=C(CC[C@@]13C)C(=O)OC4)[C@@H]2O	active
O=C(O)COc1ccccc1	inactive
O=C1C=CC[C@@H]2[C@H]3CCCN4CCC[C@@H](CN12)[C@@H]34	inactive
O=S(=O)(O)C(F)(F)C(F)(F)C(F)(F)C(F)(F)C(F)(F)C(F)(F)C(F)(F)C(F)(F)F	inactive
C[N+](C)(C)CC(=O)O	inactive

---

- measurement description: qHTS Screen of the MIPE 4.0 Collection Against Ewings Sarcoma (EW8) (AID 1259255); further: nearly all actives have a fitted effect of over 35% in size
- measurement conditions: EW8 Ewing sarcoma viability, CellTiter-Glo, 48 h; series mostly up to 45.8 µM
Results filed as inconclusive are left out. Calls of active or inactive are those of the source. Calls come from the whole dose curve; as a rule, active = well fitted inhibition curve with a large enough effect; inconclusive = small, poorly fitted or top-dose-only effect; inactive = no such curve, though single readings can be large or run the other way.
Outcome codes: active, inactive

compound	assigned category
O=c1[nH]c2ccc(Cl)cc2c(N[C@@H]2CN3CCC2CC3)c1-c1nc2ccccc2[nH]1	active
O=c1[nH]c2ccccc2n1C1CCN(Cc2ccc(-c3[nH]c4cc5ncnc5cc4nc3-c3ccccc3)cc2)CC1	active
O=C(Oc1ccc([N+](=O)[O-])cc1)N1CCC(C(O)(c2ccc3c(c2)OCO3)c2ccc3c(c2)OCO3)CC1	inactive
CCN1C[C@]2(OC(=O)c3ccccc3NC(C)=O)CC[C@H](OC)[C@@]34[C@H]5CC6[C@@H](OC)C[C@](O)(C(C[C@@H]23)[C@@H]14)[C@@]5(O)[C@@H]6OC	inactive
Oc1ccc2c3c1O[C@H]1c4[nH]c5c(c4C[C@@]4(O)[C@@H](C2)N(CC2CC2)CC[C@]314)C[C@@]1(O)[C@H]2Cc3ccc(O)c4c3[C@@]1(CCN2CC1CC1)[C@H]5O4	inactive
Cc1c(C(=O)c2cccc3ccccc23)c2cccc3c2n1[C@H](CN1CCOCC1)CO3	active
CC(N[C@H]1C[C@H]1c1ccccc1)c1ccc2c(c1)OCCO2 (some centres not stated)	inactive

---

- Test system: HEK293
- measurement description: Cytotoxic Profiling of Annotated Libraries Using Quantitative High-Throughput Screening (AID 1296008); further: nearly all actives have a fitted effect of over 60% in size
- measurement conditions: Five cell lines viability, CellTiter-Glo ATP luminescence, 48-72 h
Results filed as inconclusive are left out. Activity calls are given as the source filed them. The call rests on the fitted dose curve; in most records, active means well fitted inhibition curve with a large enough effect; inconclusive means small, poorly fitted or top-dose-only effect; inactive means flat fitted curve, though single readings scatter.
Labels: YES for active, NO for inactive

molecule	assigned category
C=CCC1=C(C)C(OC(=O)C2C(C=C(C)C)C2(C)C)CC1=O (centres undefined)	YES
CC(=O)[O][Hg][c]1ccccc1	YES
O=[N+]([O-])/N=C1\NCCN1Cc1ccc(Cl)nc1	NO
CN[C@@H](C)[C@H](O)c1ccccc1	NO
CN(C)[C@@H]1C(=O)C(C(N)=O)=C(O)[C@@]2(O)C(=O)C3=C(O)c4c(O)cccc4[C@@](C)(O)[C@H]3[C@H](O)[C@@H]12	NO
c1cc2c(cc1[C@H]1OC[C@H]3[C@H]1CO[C@H]3c1ccc3c(c1)OCO3)OCO2	NO
O=c1[nH]c2ccccc2n1C1CCN(Cc2ccc(-c3[nH]c4cc5ncnc5cc4nc3-c3ccccc3)cc2)CC1	YES
CCC(=O)OC1CCC2C3CCC4=CC(=O)CC[C@@]4(C)C3CC[C@]12C (some centres undefined)	NO
CC1=C(C(=O)O)N2C(=O)[C@@H](N)[C@H]2SC1	NO

---

- measurement description: qHTS of pediatric cancer cell lines to identify multiple opportunities for drug repurposing: Confirmatory screen for BT-12 cells (AID 1347112); further: potency means the concentration at half of the fitted maximal effect;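 further: viability read after 48 h of compound exposure; nearly all actives have a fitted effect of over 55% in size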
- measurement conditions: BT-12 rhabdoid tumor cells, viability; series mostly up to 45.9 µM
Results filed as inconclusive are left out. Calls of active or inactive are those of the source. The call rests on the fitted dose curve; in most records, active means well fitted cell-killing curve with a large enough effect; inconclusive means small, poorly fitted or top-dose-only effect; inactive means flat fitted curve, though single readings scatter.

compound	Potency
CC(C)(O)C=CC(=O)[C@](C)(O)[C@H]1[C@H](O)C[C@]2(C)[C@@H]3CC=C4[C@@H](C=C(O)C(=O)C4(C)C)[C@]3(C)C(=O)C[C@@]12C	1.31 µM (active)
Cc1ccccc1-n1c(Cn2cnc3c(N)ncnc32)nc2cccc(C)c2c1=O	inactive
Cc1[nH]nc2ccc(-c3cncc(OC[C@@H](N)Cc4c[nH]c5ccccc45)c3)cc12	4.14 µM (active)
CC[C@@]1(O)C(=O)OCc2c1cc1n(c2=O)Cc2cc3ccccc3nc2-1	0.827 µM (active)
CC(C)(C)C(O)C(Oc1ccc(Cl)cc1)n1cncn1 (stereo unspecified)	inactive
CO[C@H]1CCC(O[C@H]2C[C@H]([C@]3(C)CC[C@]4(C[C@H](O)[C@@H](C)[C@@H]([C@@H](C)C=C(C)C(=O)[C@H](C)C[C@H](C)C(=O)O)O4)O3)O[C@]3(O[C@@H]([C@H]4O[C@@](O)(CO)[C@H](C)C[C@H]4C)C[C@H]3C)[C@H]2C)O[C@H]1C (stereo partly specified)	2.93 µM (active)
